tested on: OVCAR-5 ovarian; test: NCI-60 one-dose screen, 48 h (100 = growth as untreated, 0 = no growth, -100 = all killed); conditions: 10 µM unless noted
The panel holds about 83,000 compounds, 20% with a hit somewhere; the sample as a whole holds those more often. Active and inactive are the calls of the source. The calls were made as follows: active = growth percent below 10; inactive = the rest.

COMPOUND | growth
CC(C)c1nn(-c2ccccc2)c(N2CCCCC2)c1/C=N/NC(N)=S | 98.7% (inactive)
Cc1cc(O)c2c(c1)C(=O)C(c1c(C)cc3c(c1O)C(=O)C=CC3=O)=CC2=O | 117% (inactive)
CN1CCN(c2ccc(NC(=O)Nc3ccc4c(ccn4-c4cccc(C(N)=O)n4)c3)cc2C(F)(F)F)CC1 | 85.3% (inactive)
C/C(Cc1ccc(Cl)cc1)=C(/c1ccccc1)c1ccc(OCCN)cc1 | 97.4% (inactive)
COCCC[C@H]1O[C@@](O)([C@H](C)[C@@H]2CC(OC)C(O)/C=C(C)/C=C(C)/C=C(\C)C(OC3O[C@@H](C)[C@H](O)C(O)[C@@H]3O)C(C)/C=C(C)/C=C(OC)/C=C(\C)C(=O)O2)C(OC)C(O)[C@]1(C)O[C@H]1C[C@@H](O)[C@H](O[C@H]2C[C@](C)(O)[C@H](O)C(C)O2)C(C)O1 (some centres undefined) | 78.9% (inactive)
Oc1ccc(CSc2nnc(-c3ccc(Br)cc3)n2-c2ccccc2)c2cccnc12 | 54.4% (inactive)
N/C(=N\c1nc2ccc([N+](=O)[O-])cc2s1)C(Cl)(Cl)Cl | 84.1% (inactive)
CNC(=O)c1cc(Oc2ccc3nc(NC(=O)c4cccc(C(F)(F)F)c4)sc3c2)ccn1 | 97.7% (inactive)
C#Cc1ccc(NC(=O)c2ccc(/C=C/C(=O)c3nccn3C)cc2)c(F)c1 | 40.7% (inactive)
O=c1c2c(O)cccc2oc2c3c(cc(O)c12)O[C@H]1OC=C[C@@H]31 | 110% (inactive)
Cc1cc(=O)n2nc(-c3cn(C)c4ccc(Cl)cc34)sc2n1 | 93.8% (inactive)
COc1ccc(-c2nc3cc(Cl)c(Cl)cc3n2CC(=O)N=Nc2c(O)[nH]c3ccc(Br)cc23)cc1 | -5.99% (active)
COc1ccc(/C=N/Nc2nc(Nc3ccccc3)nc(Nc3ccc(S(N)(=O)=O)cc3)n2)cc1 | 85.6% (inactive)
C=C1C(=O)O[C@@H]2C[C@@H](C)[C@H](OC)CC(=O)[C@](C)(OC(C)=O)C[C@H](OC(=O)/C(C)=C\C)[C@@H]12 | 115% (inactive)
CS(=O)(=O)c1nccc(-c2c(-c3ccc(F)c(OCc4ccccc4)c3)nc3sccn23)n1 | 100% (inactive)
CC1=CC(=O)CC(C)(C)[C@@]1(O)/C=C/C(C)=C\C(=O)O | -25% (active)
COc1cc([C@H]2OC[C@H]3[C@@H]2CO[C@@H]3c2ccc(O)c(OC)c2)ccc1O | 86.6% (inactive)
CCCC(=O)NC(c1cccnc1)c1cc(C(C)=O)c2cccnc2c1O (centres undefined) | 40% (inactive)
CC(C)SC1=NC(=C(C(=N1)NC2=ClC=CC=C2)C#N)C3=CC=CC=C3 | 80.3% (inactive)
C=C(C)[C@@H]1CC[C@]2(COS(C)(=O)=O)CC[C@]3(C)[C@H](CC[C@@H]4[C@@]5(C)CCCNC(C)(C)[C@@H]5CC[C@]43C)[C@@H]12 | 92.5% (inactive)
CCOC(=O)C1=C(C)Nc2nnc(Nc3ccccc3)n2C1c1ccccc1 (centres undefined) | 91.2% (inactive)
CCCC(=O)NC(c1cccnc1)c1cc(Cl)c2cccnc2c1O (centres undefined) | 55.6% (inactive)
COc1ccc(/C=N\NC(=O)c2ccc3nc(-c4ccc(Br)cc4)[nH]c3c2)cc1 | 79.2% (inactive)
CC1(C)CC[C@]2(C(=O)N3CCCN(CC#N)CC3)CC[C@]3(C)C(=CC[C@@H]4[C@@]5(C)CC[C@H](O)C(C)(C)[C@@H]5CC[C@]43C)[C@H]2C1 | 84.1% (inactive)

====

system: A549/ATCC NSCLC; experiment: NCI-60 one-dose screen, 48 h (100 = growth as untreated, 0 = no growth, -100 = all killed); conditions: 10 µM unless noted
Compounds without any hit were thinned out: in the full panel of roughly 83,000, 20% have a hit.
Field 'label' (enum: class 1 / class 0). Set to class 1 when growth is strictly under 60%; else class 0.

COMPOUND | CLASS
COc1cnc2c(c1)C(=O)c1c-2n(CCCNCC2CC2)c(=O)c2cc(F)ccc12 | class 1
CCOC(=O)C1=C(C)Nc2nc3ccccc3n2C1c1ccccc1 (configuration not stated) | class 0
O=C(CN1C(=O)S/C(=C\c2ccccc2)C1=O)Nc1ccc(C(=O)/C=C/c2cc3ccccc3nc2Cl)cc1 | class 0
CN1CCN(c2nc(-c3cnc4ccccc4n3)cc3ccccc23)CC1 | class 0
CN(c1ccc(Br)cc1)S(=O)(=O)c1ccc(-c2cnc(C3CC3)o2)cc1 | class 1
C=CCn1c(SCC(=O)Nc2ccc(OC)cc2)nnc1-c1ccc(Cl)cc1 | class 0

====

Some compounds, each annotated with its measured growth.
system: RXF 393 renal; experiment: NCI-60 one-dose screen, 48 h (100 = growth as untreated, 0 = no growth, -100 = all killed); settings: 10 µM unless noted
This is part of a sample that, as a whole, favours compounds with a hit. Of some 83,000 tested, about 20% had one in any assay.

COMPOUND | growth / %
O=C(Nc1cccc(Cl)c1)Nc1nc2ccc([N+](=O)[O-])cc2s1 | -26.4
C#CCOc1ccc(C(Nc2ccc(Cl)cc2)c2nnnn2C2CCCCC2)cc1 (configuration not stated) | 87
N#Cc1c(-c2cccs2)cc(-c2cnccn2)nc1SCC(=O)NNC(=S)Nc1ccc(F)cc1 | 141
CC1OC(O[C@@H]2[C@H](O)C(CO)OC(O[C@H]3COC(O[C@H]4CC[C@]5(C)[C@H]6CC[C@]78OC[C@@]9(CC[C@](C)(C=O)C[C@H]97)C(=O)C[C@@]8(C)[C@]6(C)CC[C@H]5C4(C)C)[C@@H](O)[C@@H]3O)[C@H]2OC2OC[C@@H](O)[C@@H](O)[C@@H]2O)[C@@H](O)[C@@H](O)[C@H]1O (some centres not stated) | 87.4
CS(=O)c1nccc(-c2c(-c3ccc(F)c(OCCc4ccccc4)c3)nc3sccn23)n1 (configuration not stated) | 98.5
O=c1c2ccccc2nc(COc2ccccc2)n1/N=C/C=C/c1ccccc1 | 101
C=C1C(=O)O[C@@H]2C[C@@H](C)/C=C\C(=O)[C@](C)(OC(C)=O)C[C@H](OC(=O)/C(C)=C\C)[C@@H]12 | -88.1

====

Some compounds, each annotated with its measured growth.
test system: ACHN renal; assay: NCI-60 one-dose screen, 48 h (100 = growth as untreated, 0 = no growth, -100 = all killed); conditions: 10 µM unless noted
The panel holds about 83,000 compounds, 20% with a hit somewhere; the sample as a whole holds those more often.
PARAMETER: growth (%)

SUBSTANCE_SMILES | PARAMETER | EXPERIMENTAL_RESULT
CC[C@H](C)[C@H]1NC(=O)[C@@H]([C@H](O)C(C)C)NC(=O)[C@@H](C)N(C)C(=O)[C@H](C)N(C)C(=O)[C@H](CC(C)C)NC(=O)[C@H](CC(C)C)N(C)C(=O)[C@H](C)N(C)C1=O | growth | 5.95
COc1cc(/C=N/n2cnc3oc(-c4ccccc4)cc3c2=N)cc(CN2CCN(C)CC2)c1O | growth | 83.1
C=C(C)[C@@H]1CC[C@]2(COS(C)(=O)=O)CC[C@]3(C)[C@H](CC[C@@H]4[C@@]5(C)CCCNC(C)(C)[C@@H]5CC[C@]43C)[C@@H]12 | growth | 99.2
COc1ccc(OC)c([C@H]2c3[nH]c4ccccc4c3C[C@H]3C(=O)N(CCCCCCC(=O)NO)CC(=O)N23)c1 | growth | 94.2
COc1ccc(-c2nnc(SCc3ccc(O)c4ncccc34)n2-c2ccccc2)cc1 | growth | 4.43
O=S(=O)(Nc1ccc2c(c1)OC(F)(F)O2)c1ccc(-c2cnc(C3CC3)o2)cc1 | growth | 57.1
COc1ccc([C@@H]2[C@@H](O)C(=O)N2c2cc(OC)c(OC)c(OC)c2)cc1 | growth | 26.8

====

tested on: NCI-H522 lung; experiment: NCI-60 one-dose screen, 48 h; details: 10 µM unless noted
About 83,000 compounds went through this panel and 20% of them were active in at least one assay; those are over-represented in the sample as a whole. The source made the active and inactive calls. How the source made its calls: active means growth percent below 10; inactive means the rest.
Classes used: TRUE = active, FALSE = inactive

SUBSTANCE_SMILES | SYSTEM_NAME | CLASS
Nc1nc(-c2cccc([N+](=O)[O-])c2)c(N=Nc2ccccc2Cl)s1 | NCI-H522 lung | FALSE
CCNCc1c(-c2cccc(OC(F)(F)F)c2)[nH]c2ccc(N3CCCC3)cc2c1=O | NCI-H522 lung | FALSE
C/C(=N\NC(=S)Nc1ccc(Br)cc1)c1cc2ccccc2oc1=O | NCI-H522 lung | TRUE
COc1cc(/C=C/C(=O)c2ccc(NC(=O)CSc3nnc(-c4ccc5nc(-c6ccccc6)[nH]c5c4)o3)cc2)cc(OC)c1OC | NCI-H522 lung | FALSE
CCN(CC)Cc1c(-c2cccc(OC(F)(F)F)c2)[nH]c2ccc(N3CCCC3)cc2c1=O | NCI-H522 lung | FALSE
CN(c1ccc(F)cc1)S(=O)(=O)c1ccc(-c2cnc(C3CC3)o2)cc1 | NCI-H522 lung | FALSE

Data origin, for the record: PubChem BioAssay (NCI)
